The measured values listed here are drawn from patent US8686024B2.

Some compounds, each annotated with its measured pIC50.
Target: acetylcholine esterase (AChE) (Mus musculus, UniProt P21836)
Construct: brain homogenate and serum of mouse were used as choline esterase enzyme sources; from tissue; host or cells: mouse brain homogenate
Sequence (P21836 32-614): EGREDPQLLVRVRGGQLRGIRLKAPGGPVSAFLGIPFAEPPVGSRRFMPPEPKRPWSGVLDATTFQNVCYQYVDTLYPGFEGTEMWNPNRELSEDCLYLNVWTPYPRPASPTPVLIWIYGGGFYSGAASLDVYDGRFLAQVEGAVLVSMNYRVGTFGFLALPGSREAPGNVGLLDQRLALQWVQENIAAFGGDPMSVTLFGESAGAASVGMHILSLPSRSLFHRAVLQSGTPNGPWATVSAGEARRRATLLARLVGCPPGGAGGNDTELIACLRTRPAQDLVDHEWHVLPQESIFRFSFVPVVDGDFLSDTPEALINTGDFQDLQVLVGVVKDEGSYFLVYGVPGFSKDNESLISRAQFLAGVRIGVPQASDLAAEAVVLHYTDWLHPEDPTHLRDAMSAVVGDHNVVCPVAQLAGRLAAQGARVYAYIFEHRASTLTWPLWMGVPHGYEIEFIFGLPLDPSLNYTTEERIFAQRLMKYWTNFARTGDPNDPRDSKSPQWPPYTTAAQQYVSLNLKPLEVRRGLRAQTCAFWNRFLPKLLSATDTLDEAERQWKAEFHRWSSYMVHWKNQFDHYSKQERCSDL
Assay: In vitro assay for choline esterase inhibition (Ellman method), acetylthiocholine substrate, mouse brain homogenate
Assay type: biochemical
pIC50: −log10 of the molar value.
reported.property: pIC50

>>> result("Cc1ccc(C(C)NC(=O)Oc2ccc3c(c2)CCN3Cc2ccccc2)cc1 (centres unmarked)")
"< 4.00"
>>> result("CN(CC1CCOCC1)C(=O)Oc1ccc2c(c1)C(C)(C)CN2Cc1ccncc1")
4.68
>>> result("CC(C)(C)CCNC(=O)Oc1ccc2c(c1)CCN2Cc1ccccc1")
"< 4.00"
>>> result("COC1C=CC(CNC(=O)Oc2ccc3c(c2)CCN3Cc2ccccc2)(OC)O1 (centres unmarked)")
"< 4.00"
>>> result("CC(C)c1ccc(NC(=O)Oc2ccc3c(c2)CCN3Cc2ccccc2)cc1")
"< 4.00"
>>> result("O=C(Nc1ccc2c(c1)OCCO2)Oc1ccc2c(c1)CCN2Cc1ccccc1")
"< 4.00"
>>> result("C[C@H](NC(=O)Oc1ccc2c(c1)CCN2Cc1ccccc1)c1ccccc1")
"< 4.00"
>>> result("CN(C)CC(C)(C)CNC(=O)Oc1ccc2c(c1)CCN2Cc1ccccc1")
"< 4.00"
>>> result("Cc1ccc(CCNC(=O)Oc2ccc3c(c2)CCN3Cc2ccccc2)c(C)c1")
"< 4.00"
>>> result("CC(C)c1ccc(NC(=O)Oc2ccc3c(c2)CCN3Cc2ccccn2)cc1")
"< 4.00"
>>> result("CC(C)c1ccc(NC(=O)Oc2ccc3c(c2)CCN3Cc2cccc(O)c2)cc1")
"< 4.00"
>>> result("CN(CC1CCOCC1)C(=O)Oc1ccc2c(c1)C(C)(C)CN2Cc1ccccn1")
5.07
>>> result("CC(C)c1ccc(NC(=O)Oc2ccc3c(c2)CCN3Cc2c[nH]c3ccccc23)cc1")
"< 4.00"
>>> result("O=C(NCCSCc1ccco1)Oc1ccc2c(c1)CCN2Cc1ccccc1")
"< 4.00"
>>> result("CN(C)C(=O)Oc1ccc2c(c1)CCN2Cc1ccccc1")
4.89
>>> result("O=C(Nc1ccc2c(c1)CCC2)Oc1ccc2c(c1)CCN2Cc1ccccc1 [Example 85, 1-benzylindolin-5-yl 5-indanylcarbamate]")
"< 4.00"
>>> result("O=C(NCC12CC3CC(CC(C3)C1)C2)Oc1ccc2c(c1)CCN2Cc1ccccc1")
"< 4.00"
>>> result("CCCN(CCC)C(=O)CC1c2cc(OC(=O)Nc3ccc(C(C)C)cc3)ccc2N(Cc2ccccc2)C1C (centres unmarked)")
"< 4.00"
>>> result("CC(C)c1ccc(NC(=O)Oc2ccc3c(c2)CCN3CC2CCCCC2)cc1")
"< 4.00"
>>> result("CN(C)CCCNC(=O)Oc1ccc2c(c1)CCN2Cc1ccccc1")
"< 4.00"
>>> result("CC(C)(C)C1CCC(NC(=O)Oc2ccc3c(c2)CCN3Cc2ccccc2)CC1 (centres unmarked)")
"< 4.00"
>>> result("CCC(COC)NC(=O)Oc1ccc2c(c1)CCN2Cc1ccccc1 (centres unmarked)")
"< 4.00"
>>> result("CNC(=O)Oc1ccc2c(c1)CCN2Cc1ccccc1 [Example 131, 1-benzylindolin-5-yl methylcarbamate]")
5.89
>>> result("COc1ccc(CCNC(=O)Oc2ccc3c(c2)CCN3Cc2ccccc2)cc1")
"< 4.00"
>>> result("CC(C)(C)CNC(=O)Oc1ccc2c(c1)CCN2Cc1ccccc1")
"< 4.00"
>>> result("O=C(NC1CCN(Cc2ccccc2)CC1)Oc1ccc2c(c1)CCN2Cc1ccccc1")
"< 4.00"
>>> result("CC(=O)NCCC1CN(Cc2ccccc2)c2ccc(OC(=O)Nc3ccc(C(C)C)cc3)cc21 (centres unmarked)")
"< 4.00"
>>> result("O=C(NC1Cc2ccccc2C1)Oc1ccc2c(c1)CCN2Cc1ccccc1 [Example 44, 1-benzylindolin-5-yl 2-indanylcarbamate]")
"< 4.00"
>>> result("CC(C)c1ccc(NC(=O)Oc2ccc3c(c2)CCN3Cc2ccncc2)cc1")
"< 4.00"
>>> result("CC(C)c1ccc(NC(=O)Oc2ccc3c(c2)CCN3CCc2ccccc2)cc1")
"< 4.00"
>>> result("CN(CC1CCCCC1)C(=O)Oc1ccc2c(c1)C(C)(C)CN2Cc1ccccc1")
4.27
>>> result("O=C(NCC1CCCCC1)Oc1ccc2c(c1)CCN2Cc1ccccc1")
"< 4.00"
>>> result("CN(CC1CCOCC1)C(=O)Oc1ccc2c(c1)C(C)(C)CN2Cc1cccnc1")
4.70
>>> result("O=C(NC1CCCCC1)Oc1ccc2c(c1)CCN2Cc1ccccc1 [Example 20, 1-benzylindolin-5-yl cyclohexylcarbamate]")
"< 4.00"
>>> result("CC(C)c1ccc(NC(=O)Oc2ccc3c(c2)CCN3CCC(C)(C)C)cc1")
"< 4.00"

###

Some compounds, each annotated with its measured log10(IC50).
Target: butyrylcholine esterase (BuChE) (Mus musculus)
Construct: brain homogenate and serum of mouse were used as choline esterase enzyme sources; from tissue; host or cells: mouse serum
Assay: In vitro assay for choline esterase inhibition (Ellman method), butyrylthiocholine substrate, mouse serum
Type: biochemical
Conditions: mouse serum, butyrylthiocholine, absorbance at 415 nm; read-out: BuChE inhibitory activity IC50
reported.property: log10(IC50) (log10 of the value in nM)

>>> numeric_readout("Cc1ccc(CCNC(=O)Oc2ccc3c(c2)CCN3Cc2ccccc2)cc1")
1.77
>>> numeric_readout("O=C(NCc1ccccc1)Oc1ccc2c(c1)CCN2Cc1ccccc1 [Example 15, 1-benzylindolin-5-yl benzylcarbamate]")
1.11
>>> numeric_readout("COc1ccccc1CCNC(=O)Oc1ccc2c(c1)CCN2Cc1ccccc1")
1.38
>>> numeric_readout("CN(C)c1ccc(NC(=O)Oc2ccc3c(c2)CCN3Cc2ccccn2)cc1")
1.76
>>> numeric_readout("CC(C)c1ccc(NC(=O)Oc2ccc3c(c2)CCN3Cc2ccc[nH]2)cc1")
2.85
>>> numeric_readout("C=C(C)CNC(=O)Oc1ccc2c(c1)CCN2Cc1ccccc1")
1.45
>>> numeric_readout("CC(C)CNC(=O)Oc1ccc2c(c1)CCN2Cc1ccccc1")
0.90
>>> numeric_readout("O=C(NCc1ccco1)Oc1ccc2c(c1)CCN2Cc1ccccc1 [Example 18, 1-benzylindolin-5-yl furfurylcarbamate]")
1.58
>>> numeric_readout("O=C(NCc1ccncc1)Oc1ccc2c(c1)CCN2Cc1ccccc1")
2.04

###

Molecular target: butyrylcholine esterase (BuChE) (Mus musculus)
Construct: brain homogenate and serum of mouse were used as choline esterase enzyme sources; from tissue; host or cells: mouse serum
Assay: In vitro assay for choline esterase inhibition (Ellman method), butyrylthiocholine substrate, mouse serum
Type: biochemical
For each record, check the reported IC50: if it is below 100 nM write class 1, else write class 0.

>>> class_assignment("CC(C)c1ccc(NC(=O)Oc2ccc3c(c2)CCN3Cc2c[nH]c3ccccc23)cc1")
"class 0"
>>> class_assignment("CCCN(CCC)C(=O)CC1CN(Cc2ccccc2)c2ccc(OC(=O)Nc3ccc(C(C)C)cc3)cc21 (stereo not drawn)")
"class 0"
>>> class_assignment("CN(CC1CCCCC1)C(=O)Oc1ccc2c(c1)CCN2Cc1ccccc1")
"class 1"
>>> class_assignment("O=C(NCCc1ccc(Cl)cc1Cl)Oc1ccc2c(c1)CCN2Cc1ccccc1")
"class 1"
>>> class_assignment("CN(CC1CCCCC1)C(=O)Oc1ccc2c(c1)C(C)(C)CN2Cc1ccccc1")
"class 1"
>>> class_assignment("CCC(COC)NC(=O)Oc1ccc2c(c1)CCN2Cc1ccccc1 (stereo not drawn)")
"class 0"
>>> class_assignment("CCCN(CCC)C(=O)CC1c2cc(OC(=O)Nc3ccc(C(C)C)cc3)ccc2N(Cc2ccccc2)C1C (stereo not drawn)")
"class 0"
>>> class_assignment("CC(C)c1ccc(NC(=O)Oc2ccc3c(c2)CCN3CCC(C)(C)C)cc1")
"class 0"
>>> class_assignment("CC(C)c1ccc(NC(=O)Oc2ccc3c(c2)CCN3Cc2ccccn2)cc1")
"class 0"

###

Target: butyrylcholine esterase (BuChE) (Mus musculus, UniProt Q03311)
Construct: brain homogenate and serum of mouse were used as choline esterase enzyme sources; from tissue; host or cells: mouse serum
Sequence (Q03311 30-603): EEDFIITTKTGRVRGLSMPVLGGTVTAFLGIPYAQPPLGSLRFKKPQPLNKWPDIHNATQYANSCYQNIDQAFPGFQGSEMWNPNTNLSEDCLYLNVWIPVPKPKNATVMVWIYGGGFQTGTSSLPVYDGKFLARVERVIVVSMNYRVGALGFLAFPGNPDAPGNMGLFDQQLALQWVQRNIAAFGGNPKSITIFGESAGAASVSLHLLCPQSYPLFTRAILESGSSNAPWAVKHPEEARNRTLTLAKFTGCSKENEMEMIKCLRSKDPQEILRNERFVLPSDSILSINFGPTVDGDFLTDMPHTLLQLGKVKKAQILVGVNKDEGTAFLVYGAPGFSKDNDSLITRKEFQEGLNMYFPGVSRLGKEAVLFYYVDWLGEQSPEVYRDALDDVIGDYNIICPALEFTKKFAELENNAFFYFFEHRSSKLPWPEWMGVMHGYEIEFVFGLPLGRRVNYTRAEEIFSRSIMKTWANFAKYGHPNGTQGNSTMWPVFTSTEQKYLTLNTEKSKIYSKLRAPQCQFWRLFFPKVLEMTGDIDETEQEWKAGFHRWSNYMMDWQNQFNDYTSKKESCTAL
Experiment: In vitro assay for choline esterase inhibition (Ellman method), butyrylthiocholine substrate, mouse serum
Type: biochemical
Experimental: For measurement of esterase activity, brain homogenate and serum of mouse were used as choline esterase enzyme sources, and the method of Ellman et. al (Biochemical pharmacology 7: 88-95 1961) were referred. […] After incubation, thiocholine was produced by enzyme reaction in the mixture, and then, the yellow product was formed by the reaction of thiocholine and DTNB. […] And the selectivity for BuChE inhibition of each compound was calculated by the ratio: IC50 (AchE)/IC50 (BuChE).
pIC50: −log10 of the molar value.
reported.property: pIC50

>>> numeric_readout("CC(C)(C)CNC(=O)Oc1ccc2c(c1)CCN2Cc1ccccc1 [Example 153]")
7.04
>>> numeric_readout("COc1ccc(NC(=O)Oc2ccc3c(c2)CCN3Cc2ccccc2)cc1 [Example 9]")
7.01
>>> numeric_readout("COc1ccc(NC(=O)Oc2ccc3c(c2)CCN3Cc2ccccc2)cc1OC [Example 140]")
6.96
>>> numeric_readout("COc1ccc(CCNC(=O)Oc2ccc3c(c2)CCN3Cc2ccccc2)cc1 [Example 32]")
6.80
